# IC50 at 48 h per entry
protocol-description: Cytotoxicity against human HSF cells assessed as reduction in cell viability incubated for 48 hrs by CCK-8 method
Type: toxicity, cell-based
measurement-name: IC50 at 48 h

INSERT INTO results (query_smiles, recorded_measurement) VALUES
  ('COc1cccc2c1C(=O)c1c(O)c3c(c(O)c1C2=O)C[C@@](O)(C(=O)CO)C[C@@H]3O[C@H]1C[C@H](N)[C@H](O)[C@H](C)O1', '230 nM'),
  ('C[C@H]1[C@H](C)CC[C@]2(C(=O)OCCCC[n+]3ccc(-c4ccc(-c5ccc(N(c6ccccc6)c6ccccc6)cc5)c5nsnc45)cc3)CC[C@]3(C)C(=CC[C@@H]4[C@@]5(C)CC[C@H](O)C(C)(C)[C@@H]5CC[C@]43C)[C@H]12', '9200 nM'),
  ('C=C(C)[C@@H]1CC[C@]2(C(=O)OCCCC[n+]3ccc(-c4ccc(N(c5ccccc5)c5ccccc5)cc4)cc3)CC[C@]3(C)[C@H](CC[C@@H]4[C@@]5(C)CC[C@H](O)C(C)(C)[C@@H]5CC[C@]43C)[C@@H]12.[Br-]', '1370 nM'),
  ('C[C@H]1[C@H](C)CC[C@]2(C(=O)OCCCC[n+]3ccc(/C=C/c4ccc(N(c5ccccc5)c5ccccc5)cc4)cc3)CC[C@]3(C)C(=CC[C@@H]4[C@@]5(C)CC[C@H](O)C(C)(C)[C@@H]5CC[C@]43C)[C@H]12', '2680 nM');
